assay: physchem; settings: octanol/phosphate buffer, pH 7.4
quantity_measured: logD

smiles: CC(C)(C)OC(=O)N1CCN(c2ncc(OCc3ccncc3)cn2)CC1
logD: 3.4
//
smiles: C[C@@H]1CN(c2nc(C3CC3)no2)CCN1c1ncc(OCc2ccncc2C#N)cn1
logD: 3.5
//
smiles: CC(C)(C)OC(=O)N1CCN(c2ccc(OCc3ccc(S(C)(=O)=O)cc3)cn2)CC1
logD: 3.2
//
smiles: C[C@@H]1CN(C(=O)OC(C)(C)C)CCN1c1ncc(OCc2ccc(S(C)(=O)=O)cc2)cn1
logD: 3.5
//
smiles: Cc1cnccc1COc1cnc(N2CCN(C(=O)OC(C)(C)C)C[C@H]2C)nc1
logD: 3.8
//
smiles: CC(C)(C)OC(=O)N1CCN(c2ccc(OCc3ccc(S(C)(=O)=O)cc3)nn2)CC1
logD: 2.8
//
smiles: C[C@@H]1CN(c2ncc(F)cn2)CCN1c1ncc(OCc2ccncc2C#N)cn1
logD: 3.4
//
smiles: C[C@@H]1CN(C(=O)OCC(F)(F)F)CCN1c1ncc(OCc2ccncc2C#N)cn1
logD: 3
//
smiles: C[C@H]1CN(C(=O)OC(C)(C)C)CCN1c1ncc(OCc2ccc(S(C)(=O)=O)cc2)cn1
logD: 3.5

Data origin, for the record: ChEMBL document CHEMBL2086249
